System: cancer cell lines
Experiment: Cancer cell proliferation activity of representative nucleosides, CellTiterGlo 72 h (Example 7, Tables 8 and 9)
Format: cell-based
Settings: Homo sapiens, PANC-1, 72 h, PANC1, 72 h (Table 9)
Procedure: Dose response relationships on cell proliferation was assessed for representative nucleosides on cancer cell lines. […] After incubation for 72 h at 37° C. at 5% or 10% CO2 dependent on the medium, cell plates were equilibrated to room temperature for one hour, CellTiterGlo reagent (Promega) was added and luminescence was measured approximately an hour later using a luminometer. […]
readout label: IC50

Nc1nc(=O)n([C@@H]2C=C[C@H](CO)O2)cc1F [Elvucitabine, reference compound]
> 50 µM
Nc1ccn([C@H]2C[C@H](O)[C@](CO)(CF)O2)c(=O)n1
0.62 µM
C#C[C@]1(CO)O[C@@H](n2cnc3c(N)nc(F)nc32)C[C@@H]1O [Islatravir (EFdA), Islatravir, reference compound]
> 50 µM

// switching to the query molecule
IC50 for Cc1cn([C@H]2C[C@H](O)[C@@](C#N)(CO)O2)c(=O)[nH]c1=O ?
> 50 µM

----------
Test system: NCI-H441
Assay: Cell proliferation CellTiterGlo Ex.2
Type: cell-based
Conditions: Homo sapiens; NCI-H441 (Lung), 72 h
readout label: IC50 (µM)
Unit µM implied. Number only.

IC50 for C#C[C@]1(CO)O[C@@H](n2cnc3c(=O)[nH]c(N)nc32)C[C@@H]1O ?
3.64

----------
Tested on: SNU-16
Assay: Cell proliferation CellTiterGlo Ex.2
Format: cell-based
Details: Homo sapiens; SNU-16 (Stomach), 72 h
readout label: IC50 (nM)
Unit nM implied. Number only.

Param readout= IC50; system= SNU-16; entry= C#C[C@]1(CO)O[C@@H](n2cnc3c(=O)[nH]c(N)nc32)C[C@@H]1O ; returns value.
1950

----------
Test system: SW620
Assay: Cell proliferation Ex.3
Format: cell-based
Settings: Homo sapiens, SW-620; SW620, 168 h
pIC50: −log10 of the molar value.
readout label: pIC50

pIC50 for C#C[C@]1(CO)O[C@@H](n2cc(F)c(N)nc2=O)C[C@@H]1O ?
< 5.00

----------
System: cancer cell lines
Assay: Cancer cell proliferation activity of representative nucleosides, CellTiterGlo 72 h (Example 7, Tables 8 and 9)
Format: cell-based
Details: Homo sapiens, A204, 72 h, A204, 72 h (Table 9)
pIC50: −log10 of the molar value.
readout label: pIC50

a: Nc1nc(=O)n([C@@H]2C=C[C@H](CO)O2)cc1F [Elvucitabine, reference compound]
b: Cc1cn([C@H]2C[C@H](O)[C@@](C#N)(CO)O2)c(=O)[nH]c1=O [compound 31]
c: C#C[C@]1(CO)O[C@@H](n2cnc3c(N)nc(F)nc32)C[C@@H]1O [Islatravir (EFdA), Islatravir, reference compound]
d: Nc1ccn([C@H]2C[C@H](O)[C@](CO)(CF)O2)c(=O)n1 [compound 32]
// smallest pIC50 at index 0, largest at the end Present the labels in the sequence the task asks for.
b, c, a, d
(b: 5.59, c: 5.84, a: 6.39, d: 7.70)

----------
Test system: SKLMS1
Assay: Cell proliferation Ex.3
Assay type: cell-based
Settings: Homo sapiens, SK-LMS-1; SKLMS1, 168 h
readout label: IC50

Param readout= IC50; system= SKLMS1; entry= C#C[C@]1(CO)O[C@@H](n2cc(F)c(N)nc2=O)C[C@@H]1O ; returns value.
> 10 µM

----------
System: A431
Test: Cell proliferation Ex.3
Assay type: cell-based
Settings: Homo sapiens, A-431; A431, 72 h
readout label: IC50

IC50 for C#C[C@]1(CO)O[C@@H](n2cc(F)c(N)nc2=O)C[C@@H]1O [compound 9] ?
> 10 µM

----------
Tested on: OVCAR4
Assay: Cell proliferation Ex.3
Assay type: cell-based
Settings: Homo sapiens, OVCAR-4; OVCAR4, 72 h
pIC50: −log10 of the molar value.
readout label: pIC50

Param readout= pIC50; system= OVCAR4; entry= C#C[C@]1(CO)O[C@@H](n2cc(F)c(N)nc2=O)C[C@@H]1O ; returns value.
< 5.00

----------
Test system: cancer cell lines
Assay: Cancer cell proliferation activity of representative nucleosides, CellTiterGlo 72 h (Example 7, Tables 8 and 9)
Assay type: cell-based
Conditions: Homo sapiens, SK-MEL-5, 72 h, SKMEL5, 72 h (Table 9)
readout label: IC50 (µM)

C#C[C@]1(CO)O[C@@H](n2cnc3c(N)nc(F)nc32)C[C@@H]1O [Islatravir (EFdA), Islatravir, reference compound]
6.02
Nc1ccn([C@H]2C[C@H](O)[C@](CO)(CF)O2)c(=O)n1 [compound 32]
6.18

----------
System: A2780
Assay: Cell proliferation Ex.3
Type: cell-based
Settings: Homo sapiens, A2780, 120 h
Description: A dose response relationship on cell proliferation was assessed for Compound 13 on 140 tumor cell lines. […] Cells were cultured in the appropriate media. […] […] on the medium, cell plates were equilibrated to room temperature for one hour, CellTiterGlo reagent (Promega) was added and luminescence was measured approximately an hour later using a luminometer. […]
readout label: IC50

IC50 for C#C[C@]1(CO)O[C@@H](n2cc(F)c(N)nc2=O)C[C@@H]1O [compound 9] ?
> 10 µM

----------
Overview of reported IC50 across a group of molecules:
System: cancer cell lines
Assay: Cancer cell proliferation activity of representative nucleosides, CellTiterGlo 72 h (Example 7, Tables 8 and 9)
Assay type: cell-based
Details: Homo sapiens, L-363, 72 h, L-363, 72 h (Table 9)

The following molecules have reported results that may help.
C#C[C@]1(CO)O[C@@H](n2cnc3c(N)nc(F)nc32)C[C@@H]1O [Islatravir (EFdA), Islatravir, reference compound]
3.21 µM
Nc1nc(=O)n([C@@H]2C=C[C@H](CO)O2)cc1F [Elvucitabine, reference compound]
> 50 µM
Cc1cn([C@H]2C[C@H](O)[C@@](C#N)(CO)O2)c(=O)[nH]c1=O
> 50 µM

// switching to the query molecule
IC50 for Nc1ccn([C@H]2C[C@H](O)[C@](CO)(CF)O2)c(=O)n1 ?
> 50 µM

----------
System: BT20
Assay: Cell proliferation Ex.3
Format: cell-based
Conditions: Homo sapiens, BT-20; BT20, 168 h
pIC50: −log10 of the molar value.
readout label: pIC50

pIC50 for C#C[C@]1(CO)O[C@@H](n2cc(F)c(N)nc2=O)C[C@@H]1O [compound 9] ?
< 5.00

----------
Test system: NCIH358M
Test: Cell proliferation Ex.3
Format: cell-based
Details: NCI-H358M, 120 h
readout label: IC50

Param readout= IC50; system= NCIH358M; entry= C#C[C@]1(CO)O[C@@H](n2cc(F)c(N)nc2=O)C[C@@H]1O ; returns value.
> 10 µM

----------
Test system: BXPC3
Experiment: Cell proliferation Ex.3
Format: cell-based
Details: Homo sapiens, BXPC-3; BXPC3, 120 h
readout label: pIC50
// field semantics: pIC50 = negative decimal log of concentration (mol/L)

Param readout= pIC50; system= BXPC3; entry= C#C[C@]1(CO)O[C@@H](n2cc(F)c(N)nc2=O)C[C@@H]1O ; returns value.
5.89

----------
Tested on: UO31
Test: Cell proliferation Ex.3
Format: cell-based
Details: Homo sapiens, UO-31; UO31, 72 h
Description: A dose response relationship on cell proliferation was assessed for Compound 13 on 140 tumor cell lines. […] Cells were cultured in the appropriate media. […] […] on the medium, cell plates were equilibrated to room temperature for one hour, CellTiterGlo reagent (Promega) was added and luminescence was measured approximately an hour later using a luminometer. […]
pIC50: −log10 of the molar value.
readout label: pIC50

pIC50 for C#C[C@]1(CO)O[C@@H](n2cc(F)c(N)nc2=O)C[C@@H]1O ?
< 5.00

----------
System: RPMI 8226
Assay: Cell proliferation CellTiterGlo Ex.2
Format: cell-based
Settings: Homo sapiens; RPMI 8226 (Blood), 72 h
readout label: IC50

IC50 for C#C[C@]1(CO)O[C@@H](n2cnc3c(=O)[nH]c(N)nc32)C[C@@H]1O ?
> 10 µM

----------
System: C33A
Assay: Cell proliferation Ex.3
Type: cell-based
Conditions: Homo sapiens, C-33-A, 120 h
readout label: IC50 (µM)
Unit µM implied. Number only.

IC50 for C#C[C@]1(CO)O[C@@H](n2cc(F)c(N)nc2=O)C[C@@H]1O ?
2.93

----------
Tested on: ACHN
Assay: Cell proliferation Ex.3
Assay type: cell-based
Conditions: Homo sapiens, 72 h
readout label: IC50

IC50 for C#C[C@]1(CO)O[C@@H](n2cc(F)c(N)nc2=O)C[C@@H]1O [compound 9] ?
> 10 µM

----------
System: JEG3
Experiment: Cell proliferation Ex.3
Assay type: cell-based
Conditions: Homo sapiens, JEG-3; JEG3, 120 h
readout label: IC50

IC50 for C#C[C@]1(CO)O[C@@H](n2cc(F)c(N)nc2=O)C[C@@H]1O [compound 9] ?
> 10 µM

The reported measurements were obtained from patent US20230293526A1.
